# pIC50 values compiled below
Target: Epidermal growth factor receptor (Homo sapiens, UniProt P00533, C797S/L858R/T790M)
Sequence (P00533 25-1210 T790M/C797S/L858R limits assumed): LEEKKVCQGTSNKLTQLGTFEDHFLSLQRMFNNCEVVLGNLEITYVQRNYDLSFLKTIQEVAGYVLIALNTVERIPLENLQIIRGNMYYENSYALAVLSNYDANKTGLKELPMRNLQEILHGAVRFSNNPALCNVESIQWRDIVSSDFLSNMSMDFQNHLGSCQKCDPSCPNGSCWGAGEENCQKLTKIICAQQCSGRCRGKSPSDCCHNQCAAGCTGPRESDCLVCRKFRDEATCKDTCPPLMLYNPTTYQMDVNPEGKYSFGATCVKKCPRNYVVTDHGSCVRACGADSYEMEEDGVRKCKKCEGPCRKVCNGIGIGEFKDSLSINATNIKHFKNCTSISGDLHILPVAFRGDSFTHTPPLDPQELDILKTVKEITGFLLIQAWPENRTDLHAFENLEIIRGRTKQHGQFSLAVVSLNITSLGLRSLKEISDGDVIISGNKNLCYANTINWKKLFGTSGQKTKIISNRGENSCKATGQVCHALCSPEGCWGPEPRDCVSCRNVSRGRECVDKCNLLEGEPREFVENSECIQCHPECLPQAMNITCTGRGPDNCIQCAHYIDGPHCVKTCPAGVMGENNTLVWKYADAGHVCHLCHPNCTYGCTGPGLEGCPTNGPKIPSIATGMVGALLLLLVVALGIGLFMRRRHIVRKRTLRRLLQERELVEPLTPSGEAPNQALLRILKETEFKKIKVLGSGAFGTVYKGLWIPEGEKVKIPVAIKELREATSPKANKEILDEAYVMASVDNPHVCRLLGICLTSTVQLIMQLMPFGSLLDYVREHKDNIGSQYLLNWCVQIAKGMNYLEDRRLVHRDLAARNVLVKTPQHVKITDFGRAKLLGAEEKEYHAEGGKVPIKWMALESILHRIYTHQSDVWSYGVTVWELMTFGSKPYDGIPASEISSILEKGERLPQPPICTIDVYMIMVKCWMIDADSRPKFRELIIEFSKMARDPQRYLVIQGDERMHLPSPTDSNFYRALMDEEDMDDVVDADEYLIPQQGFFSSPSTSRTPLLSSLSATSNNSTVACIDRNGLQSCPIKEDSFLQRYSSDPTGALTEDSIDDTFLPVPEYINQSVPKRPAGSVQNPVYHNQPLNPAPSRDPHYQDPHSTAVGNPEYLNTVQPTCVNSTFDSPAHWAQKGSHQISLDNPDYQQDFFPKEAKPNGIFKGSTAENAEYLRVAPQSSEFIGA
Assay: Inhibition of EGFR L858R/T790M/C797S mutant (unknown origin) by ELISA
pIC50: −log10 of the molar value.
Property Measured: pIC50

* C=CC(=O)Nc1cc(Nc2nccc(-c3cn(CCCO)c4ccccc34)n2)c(OC)cc1F | < 6.00
* CCC(=O)Nc1cc(Nc2nccc(-c3cn(CCO)c4ccccc34)n2)c(OC)cc1F | < 6.00
* CCC(=O)Nc1cc(Nc2nccc(-c3c[nH]c4c(CCO)cccc34)n2)c(OC)cc1F | < 6.00
